Assay: endothelial E-selectin expression blockers – imaging, HUVEC, immunofluorescence, MLSMR starter and 10KST1 sets, primary screen (AID 487);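 further: signal is fraction of cell area covered by stained E-selectin grains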
Details: HUVEC TNFalpha-induced E-selectin immunofluorescence imaging, at 2 µM; active compounds read high
Kindly return label 1 if reported inhibition is no lower than -70%; return label 0 if it is lower.

Query block: Please tell me: is the molecule CC(=O)Nc1ccc(S(=O)(=O)N(CC(=O)O)Cc2ccccc2)cc1 at or over -70% in terms of inhibition?
Result block: label 0

Query block: Subsequent entry: CC12CN3CCN(CC(C3)C1(O)CN1CCCCC1)C2 (configuration not stated)
Result block: label 1

Query block: Follow-up entry: COc1ccc(C(=O)Nc2ccc(Cl)c(Cl)c2)c(OC)n1
Result block: label 0

Query block: Item: COC(=O)c1sccc1NC(=O)c1ccco1
Result block: label 1

Query block: How about this molecule: COc1cc(C2c3c(n[nH]c3C)C(=O)N2c2ccc(C)cc2)ccc1O (configuration not stated)
Result block: label 1

Query block: And what about the molecule CCc1nnc(NC(=O)c2ccc(S(=O)(=O)NCC(C)C)cc2)s1 ?
Result block: label 0

Query block: Now give it for CCOC(=O)c1c(C)oc2ccc(O)c(CN3CCCCC3)c12 too.
Result block: label 0

Query block: Another molecule to check: CCCN(CCO)Cc1cccc(Br)c1
Result block: label 0

Query block: Next: CCn1cc(C(=O)NCC2CCCO2)c(=O)c2cc(S(=O)(=O)N(C)C)ccc21 (configuration not stated)
Result block: label 1

Query block: Would you mind doing O=P(CCNCc1ccco1)(c1ccccc1)c1ccccc1 as well?
Result block: label 1

Query block: Follow-up item: COc1ccc(-n2c(COc3ccccc3)nnc2SCc2ccc(C#N)cc2)cc1
Result block: label 1

Query block: Next molecule: CCOC(=O)C1=C(C)N(C)C(C)=C(C(=O)OCC)C1c1cccnc1
Result block: label 1
